The reported measurements were obtained from the supplement of paper PMC9170038.

- System: K4 kissing-loop RNA reporter;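 note: bound reporter read as fluorescence of individual clusters on recovered sequencing chips by microscopy, with normalized cluster intensities fitted with a binding model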
- test_name: apparent KD of K4 kissing-loop reporter; higher = weaker reporter binding
- measurement_conditions: Eterna round: R107; input ligand: none
reported_metric: apparent KD of K4 kissing-loop reporter (nM)
Hi! Could you send only the number? It should be in nM, unit omitted.

The cases that follow already have their apparent KD of K4 kissing-loop reporter on record.
1) GGACGACAGGCGGCCGCCACUCAAAGCAGCCAGCGAGUGAUGUUCGUGGCGGAGUGAUGUUCCUAGAGGACCGGGUCUGCAGUUC [Same State Tryptophan B GF 18]: 468
2) ACAUGUUCCAGUGAUGUUGGCGUACGUGAUACCAGACGAAUAAAAGUCCCUUGGCAGCACAAAUAAGCCAAGAUAGGUGAAUGAU [#04 K4 Theophylline A Exclusion]: 495
3) AGUGAUGUUUCUUUUAAGAGUGAUGUUUUUCGAGGACCGGUACGGCCGCCACUCGAGUGAUGAGUGCGUCGUUGUGGUGAUUAGU [#13 K4 Tryptophan A Exclusion]: 463

Report apparent KD of K4 kissing-loop reporter, nothing else, for this sequence: AAUAAAAUCACGGCCGCCACUGAUUAGCAUAUUAGGAGUGAUGUUUCUAUGACUAUAUAAUUGAACAGGACCGGGUGAAUAUUUA [#20 K4 Tryptophan B Exclusion]
417

Given UGAUACCAGACGGCCGCCACUCCCGUAAGUCAAAGACUUACGAAGAAGGUUUUUUAGUGAUGUUGGAGGACCGGGUCUGGUAUCU [FiskerMod 19 - Jieux - Exclusion - Tryptophan B] , respond with its apparent KD of K4 kissing-loop reporter.
210

Provide one value: measured apparent KD of K4 kissing-loop reporter of GCAUAGCAGACGUUGAGUGGGAGCCAGGCACGAGGACCGGUACGGCCGCCACUCGACUAGGUUUUCAGUGAUGUUGAAAAUUUAG [Exclusion Tryptophan A GF4]
142

For the sequence UGUAUGUGAUUUGAUACCAGACCAGCUGGUGGUAUAUGAGUGAUGUUCAUGUUGGUUUGGGUCCCUUGGCAGCAAAUCGCAUACU [KL-SSTheoB10] , give its reported apparent KD of K4 kissing-loop reporter.
217

Recall and state the measured apparent KD of K4 kissing-loop reporter for UCUUUACCGGGAAGGAGCGUGAAUGAGAAUGGAUAUAGUGAUGUUAUGUAUACGAACGAAUCGCAGGUAGGUCGCCCGGAUCCCU [SSArgB.aB] .
643

Given UGACAUUGCUCAGAUACCAGACCUGAGGAUCACCCAGGUGCCAAAACGUACUAAAUAAAGGUCCCUUGGCAGCUGAGCAAUGUCU [TheoBX 13] , respond with its apparent KD of K4 kissing-loop reporter.
27.3

Return the recorded apparent KD of K4 kissing-loop reporter value; entry: CAAGGGCAAGUCGAUACCAGAGACACAUACCCGCAGUGAUGUUGCAGGAAACAGUUACUUCUCCCUUGGCAGCGAAUGCGACUUC [theeternabot_sameState_KL_Theo_B_45]
344

Write down apparent KD of K4 kissing-loop reporter measured for item CAGAACAUAUAUAGAAACUAUAUAUGAGAUACCAGUCAAAUUAAAGACCCUUGGCAGCUCAGGCGAGUGAUGUUCGCAGGCUAAC [Astros-Gfrank-modulation#2]
102

###

- Test system: MS2 coat protein
- test_name: apparent KD of MS2 coat protein; higher = weaker reporter binding
- measurement_conditions: Eterna round: R107; input ligand: theophylline 20 uM
Reported apparent KD of MS2 coat protein values are given for each entry in this list.
Report as: number unit

1) UUUUUCGCGGGCGAUACCAGCUUGAUCGUACUGGCCUGGUACAUGAGGAUCACCCAUGUAAGCCCUUGGCAGCGCGCGGGAGAAG [Exclusion - Theophylline B Attempt #1 (HarryS)]: 14.6 nM
2) AAAGAUCGGAAACGAUCGGCGGCUUGGGCGCGAGGACCGGUACGGCCGCCACUCGGGCAACAUGAGGAUCACCCAUGUUCCUCAU [ETA NP+V+V2 #17]: 245 nM
3) CAAGAAUGACGUACAGAUAACAAUAACGAUACCAGUACAUCAUUAUACCCUUGGCAGCGUUUCACAUGAGGAUCACCCAUGUACA [theeternabot_exclusion_MS2_Theo_A_14]: 20.1 nM
4) AAUUAAACAUCGGCCGCCACUUACUCAUGAGGUAACAACAUGAGGAUCACCCAUGUUUGAGGAUCAAGGACCGGGAUGUAAUUUU [AstrosSSTryB#3]: 40.3 nM

Lab note: next sequence to report on.
Please respond with reported apparent KD of MS2 coat protein (system MS2 coat protein) for UGACAUUGCUCAGAUACCAGACAUGAGGAUCACCCAUGUACCAAGAAAGUACAAUAAAAUGUCCCUUGGCAGCUGAGCAAUGUCU [TheoBX 8 #MS2Left #Theo2] .
137 nM
